- Test system: WRL68
- Test Summary: Cytotoxicity against human WRL68 cells compound treated for 6 hrs measured 48 hrs post washout by MTT assay
- Assay type: functional, cell-based
pIC50: −log10 of the molar value.
Parameter Measured: pIC50

1) Cn1c(/C=C/C(=O)c2ccc(Cl)cc2Cl)cc(Br)c1Br
4.83
2) Cn1c(/C=C/C(=O)c2cc(O)ccc2O)cc(Br)c1Br
6.06
3) COc1ccc(C(=O)/C=C/c2cc(Br)c(Br)n2C)c(OC)c1
6.19
4) COc1ccc(OC)c(C(=O)/C=C/c2cc(Br)c(Br)n2C)c1
5.49
5) O=C(/C=C/c1cc(Br)c(Br)[nH]1)c1ccccc1O
5.85
6) Cn1c(/C=C/C(=O)c2ccc(O)cc2O)cc(Br)c1Br
6.74
7) Cn1c(/C=C/C(=O)c2ccccc2O)cc(Br)c1Br
6.48
8) COc1ccc(C(=O)/C=C/c2cc(Br)c(Br)[nH]2)c(OC)c1
5.04
9) COc1ccc(OC)c(C(=O)/C=C/c2cc(Br)c(Br)[nH]2)c1
4.91
10) Cn1c(/C=C/C(=O)c2ccc(O)cc2)cc(Br)c1Br
5.72
11) Cn1c(/C=C/C(=O)c2ccc[nH]2)cc(Br)c1Br
5.68
